Target: Sigma non-opioid intracellular receptor 1 (Homo sapiens, UniProt Q99720)
Sequence (Q99720 whole entry): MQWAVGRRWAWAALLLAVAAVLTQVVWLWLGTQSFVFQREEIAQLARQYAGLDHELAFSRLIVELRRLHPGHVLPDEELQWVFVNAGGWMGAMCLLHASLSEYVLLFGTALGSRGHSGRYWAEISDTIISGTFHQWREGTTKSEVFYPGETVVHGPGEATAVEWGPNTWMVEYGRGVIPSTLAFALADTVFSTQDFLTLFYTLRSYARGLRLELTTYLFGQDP
Assay: GPCRScan assay: inhibition of Sigma 1
Assign Ki to each entry below.
Report as a plain number; the unit nM is understood.

May I ask what Ki has been recorded for "c1ccc2oc(-c3csc(C4CCN(Cc5nc6ncccc6[nH]5)CC4)n3)cc2c1" ?
1180

Also need Cn1c(-c2csc(C3CCN(CC4=NC5N=CC=CC5N4)CC3)n2)nc2ccccc21 (configuration not stated) [BAY-070] , thanks.
1290

###

Target: 5-hydroxytryptamine receptor 2B (Homo sapiens, UniProt P41595)
Sequence (P41595 whole entry): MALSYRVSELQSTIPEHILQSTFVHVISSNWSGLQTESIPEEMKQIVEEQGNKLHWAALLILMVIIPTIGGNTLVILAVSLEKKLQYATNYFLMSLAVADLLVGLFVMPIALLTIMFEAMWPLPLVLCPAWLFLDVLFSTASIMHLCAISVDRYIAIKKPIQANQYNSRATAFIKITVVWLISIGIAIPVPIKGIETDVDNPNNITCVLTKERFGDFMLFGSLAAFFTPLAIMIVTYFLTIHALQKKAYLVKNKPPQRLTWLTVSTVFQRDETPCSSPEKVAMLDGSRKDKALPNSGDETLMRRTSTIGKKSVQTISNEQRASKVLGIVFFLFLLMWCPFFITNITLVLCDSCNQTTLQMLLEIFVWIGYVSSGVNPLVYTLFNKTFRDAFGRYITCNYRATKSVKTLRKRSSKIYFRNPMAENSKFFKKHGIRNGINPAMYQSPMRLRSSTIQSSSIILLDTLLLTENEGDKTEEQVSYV
Assay: GPCRScan assay: inhibition of 5-HT2B
Set-up: radioligand conc. used [nm] 1.0 – 2.0, parental cells stable HEK
Details: read-out: Ki
readout kind: pKi
// field semantics: pKi = negative decimal log of concentration (mol/L)

What does the data say about its pKi? Entry: "c1ccc2oc(-c3csc(C4CCN(Cc5nc6ncccc6[nH]5)CC4)n3)cc2c1"
6.25

What do we get for Cn1c(-c2csc(C3CCN(CC4=NC5N=CC=CC5N4)CC3)n2)nc2ccccc21 (configuration not stated) ?
5.80

###

Target: 5-hydroxytryptamine receptor 3A (Homo sapiens, UniProt P46098)
Sequence (P46098 whole entry): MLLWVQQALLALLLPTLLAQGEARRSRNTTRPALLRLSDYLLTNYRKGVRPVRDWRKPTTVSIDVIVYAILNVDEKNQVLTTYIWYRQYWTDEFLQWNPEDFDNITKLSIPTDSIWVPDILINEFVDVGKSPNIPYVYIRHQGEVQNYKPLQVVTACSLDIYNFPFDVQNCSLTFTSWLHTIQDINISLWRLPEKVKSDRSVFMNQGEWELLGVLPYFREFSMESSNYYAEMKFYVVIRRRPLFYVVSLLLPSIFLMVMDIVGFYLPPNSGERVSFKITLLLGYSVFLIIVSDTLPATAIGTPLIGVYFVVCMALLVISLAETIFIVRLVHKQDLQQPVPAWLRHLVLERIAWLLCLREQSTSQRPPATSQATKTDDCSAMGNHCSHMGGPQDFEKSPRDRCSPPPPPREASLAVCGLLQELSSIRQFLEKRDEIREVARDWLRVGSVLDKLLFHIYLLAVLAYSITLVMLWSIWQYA
Experiment: GPCRScan assay: inhibition of 5-HT3
Parameters: radioligand conc. used [nm] 1.0 – 2.0, parental cells HEKT
Details: read-out: Ki
readout kind: Ki
Write the numeric value and follow it with the unit.

Would you kindly share the measured Ki for "c1ccc2oc(-c3csc(C4CCN(Cc5nc6ncccc6[nH]5)CC4)n3)cc2c1" ?
5.46 µM
